experiment: KB-3-1 Cancer Cell Toxicity qHTS against the NCATS CANVASS Library (AID 1347366); settings: KB-3-1 viability, CellTiter-Glo luminescence, 72 h; series mostly up to 46.1 µM; further: nearly all actives have a fitted effect of over 75% in size
Results filed as inconclusive are left out. Active and inactive are the calls of the source. The call rests on the fitted dose curve; in most records, active means well fitted cell-killing curve with a large enough effect; inconclusive means small, poorly fitted or top-dose-only effect; inactive means flat fitted curve, though single readings scatter. Bridge positions count the residues as written; N and C are the ends. Square brackets hold non-standard residues; d marks the D form. Side chains are listed from the residue outwards. Peptide text beside a SMILES is read from it. * marks the point of attachment. Phg(4-OMe) = COc1ccc([C@H](N)C(=O)O)cc1; d(aIle) = CC[C@H](C)[C@@H](N)C(=O)O; d(aThr) = C[C@@H](O)[C@@H](N)C(=O)O; NMeF = CN[C@@H](Cc1ccccc1)C(=O)O; Isobutyryl = CC(C)C(=O)*
Hi! Could you answer with just one of these? T = active, F = inactive

Worked examples follow.
CC(=O)Oc1cc2c(c(OC(C)=O)c1C1CCc3cc(Cl)c(Cl)n31)C(=O)n1c-2cc(Cl)c1Cl (stereo unspecified): T
CC[C@H](C)[C@H]1NC(=O)[C@@H](NC(=O)C(C)C)[C@@H](C)OC(=O)[C@H](COC(=O)CNC(C)=O)NC(=O)[C@@H]([C@@H](C)O)NC(=O)[C@H](Cc2ccccc2)N(C)C(=O)[C@H](c2ccc(OC)cc2)NC1=O (Isobutyryl-T[d(aIle)][Phg(4-OMe)][NMeF][d(aThr)]S([Gly-Ac]); ester 1-C): F
CC(C)[C@]12CC[C@@]3(C)[C@H](C)CC[C@H](O)[C@@]3(CC1)c1cc3c(cc12)[nH]c1ccccc13: F
C=C(Cl)[C@](Cl)(CBr)CC[C@@H](Br)C(C)(C)Cl: T
COC12OC1(C13OC1(OC)C(=O)c1cc4cc(C)oc(=O)c4c(O)c1C3O)C(O)c1c(cc3cc(C)oc(=O)c3c1O)C2=O (stereo unspecified): F

Consider the additional compound presented here.
Incoming: For CCC(=O)N[C@@H](C[C@H](C)C(Cl)(Cl)Cl)C(=O)N1C(=O)C=C(OC)[C@@H]1CC(C)C , what call appears in the results of this test?
Outgoing: F
